target: Estrogen receptor (Homo sapiens) (UniProt P03372); assay: qHTS assay to identify small molecule agonists of the estrogen receptor alpha (ER-alpha) signaling pathway using the BG1 cell line (AID 743079); details: BG1Luc4E2 cells, ERE-luciferase agonist, 22 h; series mostly up to 70.3 µM; also: nearly all actives have a fitted effect of over 20% in size; as to activation: % is scaled to controls: 0 for no effect and ±100 for the full control effect
Sequence (P03372 whole entry, looked up): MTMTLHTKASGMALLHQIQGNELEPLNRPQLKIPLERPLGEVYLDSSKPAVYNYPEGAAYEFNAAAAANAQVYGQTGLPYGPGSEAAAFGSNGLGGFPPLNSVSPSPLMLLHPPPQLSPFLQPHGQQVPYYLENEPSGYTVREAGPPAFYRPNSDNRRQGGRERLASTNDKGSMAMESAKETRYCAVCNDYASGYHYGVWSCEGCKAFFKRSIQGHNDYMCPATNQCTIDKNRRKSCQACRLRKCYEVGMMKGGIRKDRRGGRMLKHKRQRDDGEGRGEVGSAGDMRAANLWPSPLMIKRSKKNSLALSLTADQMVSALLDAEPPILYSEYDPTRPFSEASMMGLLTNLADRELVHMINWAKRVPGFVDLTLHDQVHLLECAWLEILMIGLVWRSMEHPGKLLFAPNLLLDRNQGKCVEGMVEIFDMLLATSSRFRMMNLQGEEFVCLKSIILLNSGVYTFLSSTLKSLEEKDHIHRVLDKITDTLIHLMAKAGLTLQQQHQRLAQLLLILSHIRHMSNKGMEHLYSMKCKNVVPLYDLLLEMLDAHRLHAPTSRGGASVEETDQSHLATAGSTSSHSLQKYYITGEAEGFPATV
Records with an inconclusive call do not appear. The source made the active and inactive calls. Calls follow the shape of the dose curve; as a rule, active = well fitted activation curve with a large enough effect in the repeat runs; inconclusive = weak or mixed curves, or effect the other way; inactive = no such curve, though single readings can be large or run the other way.
Please answer using one outcome listed in active, inactive

Solved cases (4 shown):
Write down the call the test reported for this molecule. Item: `CC(C)CCCCCCc1ccc(OCCOCCO)cc1`
inactive

Write down the call the test reported for this molecule. Item: `C[C@@H]1CN(c2c(F)c(F)c3c(=O)c(C(=O)O)cn(C4CC4)c3c2F)C[C@H](C)N1`
inactive

Write down the call the test reported for this molecule. Item: `CCOc1ccc2nc(N)sc2c1`
active

Write down the call the test reported for this molecule. Item: `CCCNC(C)(C)COC(=O)c1ccccc1`
inactive

***
Write down the call the test reported for this molecule. Item: CC(=O)OC1C2(C)CCC(C2)C1(C)C (configuration not stated)
inactive

Write down the call the test reported for this molecule. Item: CC(C)C(=O)OCC(C)(C)C(O)C(C)C (configuration not stated)
inactive

Write down the call the test reported for this molecule. Item: `O=C(O)c1cccc(Cl)c1Cl`
inactive

###

test: A CellTox Green Cytotoxicity Assay to monitor cytotoxicity in HepG2 cells - 40 hour (AID 1224879); details: CellTox Green fluorescence; series mostly up to 76.8 µM; also: % is scaled to controls: 0 for no effect and ±100 for the full control effect; nearly all actives have a fitted effect of over 40% in size
Results filed as inconclusive are left out. Calls of active or inactive are those of the source. Calls come from the whole dose curve; as a rule, active = well fitted activation curve with a large enough effect in the repeat runs; inconclusive = weak or mixed curves; inactive = flat fitted curve, though single readings scatter.
Please answer using one outcome listed in 1 (yes) (active), 0 (no) (inactive)

Write down the call the test reported for this compound. Item: CCCNC(C)C(=O)Nc1c(C)csc1C(=O)OC (configuration not stated)
0 (no)

Write down the call the test reported for this compound. Item: `ClC(Cl)Cl`
0 (no)

Write down the call the test reported for this compound. Item: `CC1=C(CC(=O)O)c2cc(F)ccc2/C1=C\c1ccc(S(C)(=O)=O)cc1`
0 (no)

Write down the call the test reported for this compound. Item: `CCCCNC(=S)NCCCC`
0 (no)

Write down the call the test reported for this compound. Item: `C=C(C)C(=O)OCCOP(=O)(O)O`
0 (no)

Write down the call the test reported for this compound. Item: `COc1nc(C)nc(NC(=O)NS(=O)(=O)c2ccccc2OCCCl)n1`
0 (no)

Write down the call the test reported for this compound. Item: `Oc1ccccc1F`
0 (no)

Write down the call the test reported for this compound. Item: `NC(=O)NS(=O)(=O)c1ccc(Cl)cc1`
0 (no)

***
Write down the call the test reported for this compound. Item: `CCC/C=C/CO`
0 (no)

###

target: Estrogen receptor beta (Homo sapiens) (UniProt Q92731); test: qHTS assay to identify small molecule agonists of the estrogen receptor beta (ER-beta) signaling pathway (AID 1259377); settings: ER-beta-UAS-bla HEK293T, beta-lactamase FRET ratio, 16 h; series mostly up to 92.4 µM; also: % is scaled to controls: 0 for no effect and ±100 for the full control effect
Sequence (Q92731 whole entry, looked up): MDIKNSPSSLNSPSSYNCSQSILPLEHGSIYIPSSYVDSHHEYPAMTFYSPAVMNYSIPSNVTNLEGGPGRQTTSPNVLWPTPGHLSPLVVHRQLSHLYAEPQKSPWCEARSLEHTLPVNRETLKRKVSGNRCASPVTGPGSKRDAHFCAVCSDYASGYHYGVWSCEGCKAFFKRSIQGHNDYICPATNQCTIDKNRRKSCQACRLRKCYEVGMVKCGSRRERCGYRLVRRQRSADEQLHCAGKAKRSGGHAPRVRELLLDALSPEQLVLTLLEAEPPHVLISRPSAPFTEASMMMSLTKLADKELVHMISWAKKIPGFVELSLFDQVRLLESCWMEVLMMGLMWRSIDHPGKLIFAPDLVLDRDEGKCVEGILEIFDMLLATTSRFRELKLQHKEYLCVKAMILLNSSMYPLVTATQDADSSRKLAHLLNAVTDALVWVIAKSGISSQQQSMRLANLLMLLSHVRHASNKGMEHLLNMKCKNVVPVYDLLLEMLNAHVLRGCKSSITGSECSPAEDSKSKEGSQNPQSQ
Results filed as inconclusive are left out. Active and inactive are the calls of the source. Calls come from the whole dose curve; as a rule, active = well fitted activation curve with a large enough effect in the signal ratio in the repeat runs (not every such curve was filed as active); inconclusive = weak or mixed curves, or effect the other way; inactive = flat fitted curve, though single readings scatter; the % refers to the signal ratio.
measuredEndpoint: activation

Some solved entries appear below for comparison.
For `O=c1[nH]c(=O)n([C@H]2C[C@H](O)[C@@H](CO)O2)cc1C(F)(F)F` , what is its reported activation?
inactive

For `CN1CCN(C2=Nc3ccccc3Oc3ccc(Cl)cc32)CC1` , what is its reported activation?
inactive

For `CCOC(=O)NCCC[Si](OCC)(OCC)OCC` , what is its reported activation?
inactive

For `COc1ccc(Nc2ccc(OC)cc2)cc1` , what is its reported activation?
inactive

For `CC(C)C(=O)OC/C=C/c1ccccc1` , what is its reported activation?
inactive

For `CC(C)CCCCCCc1ccc(OCCOCCO)cc1` , what is its reported activation?
inactive

In the following, a different molecule is considered.
For CNCCC(Oc1ccccc1OC)c1ccccc1 (stereo unspecified) , what is its reported activation?
inactive
